Exercise: for every item that follows, state its recorded protein stability index.
B1: FBF1 (parent)
chain: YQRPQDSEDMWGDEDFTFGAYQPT

variants of: B1; assay: protein stability index of a GFP-peptide fusion (GPS, HEK-293T) (PSI 1-6); higher = more stable; conditions: c terminus: a fixed tail appended;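 note: lentivirally expressed fusions sorted by FACS into six bins by GFP to DsRed ratio, PSI derived from sequencing read proportions per bin multiplied by bin number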
Give bare numbers.

Answered examples (3):
{"columns": ["variant_code", "protein stability index"],
 "data": [
  ["D9A", 2.17],
  ["Y21R", 3.06],
  ["Y21I", 3.16]
]}

Hey, can you go through the list below and give me protein stability index for every item?
1. W11D
2. D13K
3. F16G

*A*
1. 4.54
2. 2.52
3. 3.23

Hey, can you go through the list below and give me protein stability index for every item?
1. E14Q
2. F18V
3. G12F
4. S7L
5. F16P

*A*
1. 1.94
2. 3.8
3. 2.41
4. 2.87
5. 2.71

Hey, can you go through the list below and give me protein stability index for every item?
1. F16Y
2. G19F
3. R3E
4. E14V
5. S7P
6. M10A
7. M10I
8. D13S

*A*
1. 2.83
2. 2.56
3. 4.79
4. 2.36
5. 3.13
6. 4.18
7. 2.39
8. 1.85

Hey, can you go through the list below and give me protein stability index for every item?
1. A20E
2. Y21G
3. T24D

*A*
1. 3.29
2. 3.46
3. 2.88

Where do these numbers come from? They come from the supplement of paper PMC10567573.
